Each entry below carries its measured pKi, system: cloned human 5HT2A receptor (Homo sapiens, UniProt P28223).
Sequence (P28223 whole entry): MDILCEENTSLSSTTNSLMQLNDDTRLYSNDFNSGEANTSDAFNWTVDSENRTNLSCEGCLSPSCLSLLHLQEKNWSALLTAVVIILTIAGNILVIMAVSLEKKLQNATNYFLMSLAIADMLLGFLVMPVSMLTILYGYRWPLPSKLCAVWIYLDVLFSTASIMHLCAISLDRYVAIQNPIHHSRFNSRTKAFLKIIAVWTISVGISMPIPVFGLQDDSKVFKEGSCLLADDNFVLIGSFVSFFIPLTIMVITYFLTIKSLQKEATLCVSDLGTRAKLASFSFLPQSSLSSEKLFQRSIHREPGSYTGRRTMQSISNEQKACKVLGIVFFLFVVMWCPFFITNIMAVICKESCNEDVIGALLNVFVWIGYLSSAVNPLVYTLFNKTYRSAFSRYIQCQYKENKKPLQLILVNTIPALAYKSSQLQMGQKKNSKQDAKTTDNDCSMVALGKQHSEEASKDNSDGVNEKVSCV
pKi field: float, defined as -log10 of concentration (mol/L).

INSERT INTO results (compound, parameter, reading) VALUES
  ('Cc1cccc2c1Oc1ccccc1C1(O)CCN(C)CC21 (racemic) [(±)-beloxepin]', 'pKi', 6.36);

Switching to the query record.
Endpoint output: pKi of Cc1cccc2c1Oc1ccccc1C1(O)CCN(C)CC21 (single isomer, unassigned; (+)) [(+)-beloxepin] . Value? 7.01

----------
- study target: cloned human 5HT2C receptor (Homo sapiens)
- Sequence (P28335 33-458): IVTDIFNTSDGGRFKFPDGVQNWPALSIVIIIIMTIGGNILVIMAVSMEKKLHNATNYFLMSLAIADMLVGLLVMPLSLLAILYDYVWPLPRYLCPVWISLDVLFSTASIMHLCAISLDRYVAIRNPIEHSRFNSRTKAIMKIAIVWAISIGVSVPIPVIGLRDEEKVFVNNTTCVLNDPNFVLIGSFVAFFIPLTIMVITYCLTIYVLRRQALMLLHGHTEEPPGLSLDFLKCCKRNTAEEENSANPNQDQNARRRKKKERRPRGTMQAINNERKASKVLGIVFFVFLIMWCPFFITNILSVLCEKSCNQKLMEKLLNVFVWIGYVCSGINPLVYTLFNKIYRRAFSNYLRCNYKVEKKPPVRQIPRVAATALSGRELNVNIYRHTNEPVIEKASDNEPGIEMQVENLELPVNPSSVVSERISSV
- run description: 5HT2C functional assay, intracellular Ca2+ in CHO cells
- condition summary: antagonist mode, vs 3.0 nM serotonin
parameter: pIC50
Note on units: pIC50 is unitless, being -log10 of a concentration expressed in mol/L.

Quick check: pIC50 on cloned human 5HT2C receptor (Homo sapiens), item Cc1cccc2c1Oc1ccccc1C1(O)CCN(C)CC21 (single isomer, unassigned; (+)) [(+)-beloxepin] ? 5.14
